The measured values listed here are drawn from ChEMBL document CHEMBL4190279.

# System: HeLa
The label is Yes for GI50 below 1 µM and No for GI50 equal to or exceeding 1 µM.

Some solved cases for reference:
[[record]]
smiles_input = "c1ccc([Se]CCCCCCNc2c3c(nc4ccccc24)CCCC3)cc1"
test_system = "HeLa"
class = "No"

[[record]]
smiles_input = "c1ccc2c(NCCCCCC[Se][Se]CCCCCCNc3c4c(nc5ccccc35)CCCC4)c3c(nc2c1)CCCC3"
test_system = "HeLa"
class = "Yes"

[[record]]
smiles_input = "N#C[Se]CCCCCNc1c2c(nc3ccccc13)CCCC2"
test_system = "HeLa"
class = "Yes"

[[record]]
smiles_input = "O=c1[nH]cc(F)c(=O)[nH]1"
test_system = "HeLa"
class = "No"

[[record]]
smiles_input = "N#CSCCCCCCNc1c2c(nc3ccccc13)CCCC2"
test_system = "HeLa"
class = "No"


Attention now shifts to the item below.
Q) Please let me know if `c1ccc2c(NCCCCCCSSCCCCCCNc3c4c(nc5ccccc35)CCCC4)c3c(nc2c1)CCCC3` shows GI50 below 1 µM.
A) Yes

====

# Test System: UniProt:P81908
# Assay Comment: Mixed-type inhibition of equine serum BuChE assessed as enzyme-inhibitor complex using p-nitrophenyl butyrate as substrate by Lineweaver-Burk plot analysis
Observed Property: pKi
The quantity pKi is defined as the negative base-10 logarithm of the molar concentration.

[[record]]
smiles_input = "N#CSCCCCCCNc1c2c(nc3ccccc13)CCCC2"
reported_result = 6.60

[[record]]
smiles_input = "O=C(C[Se]c1ccccc1)Nc1c2c(nc3ccccc13)CCCC2"
reported_result = 6.29

[[record]]
smiles_input = "c1ccc2c(NCCCCCCSSCCCCCCNc3c4c(nc5ccccc35)CCCC4)c3c(nc2c1)CCCC3"
reported_result = 6.61

[[record]]
smiles_input = "c1ccc2c(NCCCCCSSCCCCCNc3c4c(nc5ccccc35)CCCC4)c3c(nc2c1)CCCC3"
reported_result = 6.78


Q) Requested read-out: pKi. Entry: `c1ccc2c(NCCCCCC[Se][Se]CCCCCCNc3c4c(nc5ccccc35)CCCC4)c3c(nc2c1)CCCC3`
A) 7.36

====

# Test System: Acetylcholinesterase (Electrophorus electricus)
# Sequence (O42275 whole entry): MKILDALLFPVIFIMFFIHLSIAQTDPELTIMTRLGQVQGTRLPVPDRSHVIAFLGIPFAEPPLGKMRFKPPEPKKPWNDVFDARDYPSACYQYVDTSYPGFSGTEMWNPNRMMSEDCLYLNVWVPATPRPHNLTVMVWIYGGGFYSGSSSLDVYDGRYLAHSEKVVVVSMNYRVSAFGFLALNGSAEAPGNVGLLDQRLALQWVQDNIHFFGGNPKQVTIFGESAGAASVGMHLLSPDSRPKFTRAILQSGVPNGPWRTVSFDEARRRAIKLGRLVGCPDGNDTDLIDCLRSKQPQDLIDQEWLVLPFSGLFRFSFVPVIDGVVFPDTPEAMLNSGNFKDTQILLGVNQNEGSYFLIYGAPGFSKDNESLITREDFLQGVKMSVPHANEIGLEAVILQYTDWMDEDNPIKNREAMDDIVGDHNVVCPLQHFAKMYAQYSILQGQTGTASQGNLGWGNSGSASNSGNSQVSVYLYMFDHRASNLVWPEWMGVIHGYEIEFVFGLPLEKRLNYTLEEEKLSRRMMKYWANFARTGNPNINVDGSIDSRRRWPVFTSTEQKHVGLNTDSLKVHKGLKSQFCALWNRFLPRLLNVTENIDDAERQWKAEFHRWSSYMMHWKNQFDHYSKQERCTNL
# Assay Comment: Competitive inhibition of electric eel AChE assessed as enzyme-inhibitor complex using p-nitrophenyl acetate as substrate by Lineweaver-Burk plot analysis
Collected Ki values appear next to each entry.
Give just the number in nM; leave the unit off.

Reference set, count: 2
[[record]]
smiles_input = "Cc1ccc(NC(=[Se])NCCCCCCNc2c3c(nc4ccccc24)CCCC3)cc1"
test_system = "Acetylcholinesterase (Electrophorus electricus)"
reported_result = 7.6

[[record]]
smiles_input = "N#C[Se]CCCCCNc1c2c(nc3ccccc13)CCCC2"
test_system = "Acetylcholinesterase (Electrophorus electricus)"
reported_result = 34.5


Here's the next entry for you.
Q) Requested read-out: Ki. Entry: `N#CSCCCCCCNc1c2c(nc3ccccc13)CCCC2`
A) 18.5

====

# Test System: Cholinesterase (Equus caballus, UniProt P81908)
# Sequence (P81908 whole entry): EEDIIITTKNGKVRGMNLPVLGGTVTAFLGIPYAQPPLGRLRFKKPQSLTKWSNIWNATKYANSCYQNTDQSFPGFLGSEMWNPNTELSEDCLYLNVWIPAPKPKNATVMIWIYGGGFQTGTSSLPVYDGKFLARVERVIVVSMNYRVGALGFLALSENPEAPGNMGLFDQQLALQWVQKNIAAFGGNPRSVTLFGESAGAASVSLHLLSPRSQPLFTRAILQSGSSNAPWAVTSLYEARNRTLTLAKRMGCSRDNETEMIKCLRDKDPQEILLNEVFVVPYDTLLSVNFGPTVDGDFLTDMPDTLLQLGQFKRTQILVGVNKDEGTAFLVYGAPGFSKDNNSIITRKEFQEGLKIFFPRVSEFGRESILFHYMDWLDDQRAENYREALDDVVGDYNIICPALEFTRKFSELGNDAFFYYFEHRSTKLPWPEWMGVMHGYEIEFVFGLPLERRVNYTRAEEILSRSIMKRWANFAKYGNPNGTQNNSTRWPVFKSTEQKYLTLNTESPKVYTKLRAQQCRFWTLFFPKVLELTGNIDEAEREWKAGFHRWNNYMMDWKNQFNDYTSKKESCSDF
# Assay Comment: Non-competitive inhibition of equine serum BuChE assessed as enzyme-substrate-inhibitor complex using p-nitrophenyl butyrate as substrate by Lineweaver-Burk plot analysis
Collected pKi values appear next to each entry.
The quantity pKi is defined as the negative base-10 logarithm of the molar concentration.

Reference set, count: 2
[[record]]
smiles_input = "COc1ccc(NC(=[Se])NCCCCCCNc2c3c(nc4ccccc24)CCCC3)cc1"
observed_property = "pKi"
reported_result = 7.54

[[record]]
smiles_input = "c1ccc([Se]CCCCCCNc2c3c(nc4ccccc24)CCCC3)cc1"
observed_property = "pKi"
reported_result = 7.24


Here's the next entry for you.
Q) Requested read-out: pKi. Entry: `Cc1ccc(NC(=[Se])NCCCCCCNc2c3c(nc4ccccc24)CCCC3)cc1`
A) 7.97
